tested on: MS2 coat protein; assay: apparent KD of MS2 coat protein; designed switch direction (-1 OFF switch, 1 ON switch): -1; higher = weaker reporter binding; settings: input ligand: none
Observed property: apparent KD of MS2 coat protein (nM)

Residues: CACUGGACAGGAUAUGUUCUUGAGCACUUGAGGAUCACCCAAGUCAUCAAGAACUCAGGCACAGAAGGGUUUAUGC [salish99_ex5_r4_012] (Eterna round: R97, puzzle: Exclusion 5)
Readout units: nM
Experimental value: 14

Residues: GGAUCAUAUGUCAGGAUAUGCAGGUCCUUGGAUCUGCAGAAGGGACAUGAGGAUCACCCAUGUCAUGUAGAUCC [Mat - Exclusion 4 - Eli Mod - D54] (Eterna round: R97, puzzle: Brourd's mod of Exclusion 4)
Readout units: nM
Experimental value: 25.3

----------
test system: MS2 coat protein; test: apparent KD of MS2 coat protein; designed switch direction (-1 OFF switch, 1 ON switch): -1; higher = weaker reporter binding; conditions: input ligand: none
Observed property: apparent KD of MS2 coat protein (nM)

Residues: ACAUGAGGAUCACCCAUGUGGACGAAAAGGCUCAUGUAGAGUGAGGAUAUGUGAGACGAACGAGAACAGAAGGCACAAGACAGG [Deportation 5 - Jieux - Exclusion NG 3] (Eterna round: R96, puzzle: Exclusion NG 3)
Subject of test: MS2 coat protein
Experimental value: 20
//
Residues: GUAAAACAUGAGGAUCACCCAUGUCAGGAUAUACGAUUCCACCCUAACUGCGUGGAACGUAGAAGGGACAUAGG [Exclusion 1 (MOD6.1 Esqu)] (Eterna round: R97, puzzle: Exclusion 1)
Subject of test: MS2 coat protein
Experimental value: 221
//
Residues: GCCGUCAAUGUGAGGAUAUGCCUAUGGAUACGUAGGCAGAAGGCACAUGAGGAUCACCCAUGUCCAAAGACGGC [JL-BMX4-4.31 Eli mod] (Eterna round: R97, puzzle: Brourd's mod of Exclusion 4)
Subject of test: MS2 coat protein
Experimental value: 200
//
Residues: GUUUUCAGACGGAGAUCCUACAUGAGGAUCACCCAUGUCUCUCUUGUUUUUUGCUCGUCUUAUCCUCCUCUGUUCUC [Elimod 31 - Jieux - Sensor, turn-off variant 1] (Eterna round: R97, puzzle: Sensor, turn-off variant 1)
Subject of test: MS2 coat protein
Experimental value: 520

----------
system: K4 kissing-loop RNA reporter; assay: apparent KD of K4 kissing-loop reporter; higher = weaker reporter binding; conditions: Eterna round: R107; input ligand: FMN 200 uM;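 also: bound reporter read as fluorescence of individual clusters on recovered sequencing chips by microscopy, with normalized cluster intensities fitted with a binding model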

Residues: AGAUGUCCCUGGGAUACCAGUCGGAGUCUCAGAGCUCGGAGUGAUGUUCUGGGAUGUUUCGGCCCUUGGCAGCUCUGGGACUCCC [#2 Exclusion - Theophylline B Attempt #25 (HarryS)]
Subject of test: K4 kissing-loop RNA reporter
apparent KD of K4 kissing-loop reporter (nM): 603
//
Residues: CGCAGUGAUGUUGCUAUUAUUCUUGGUUAACGAGGACCGGUACGGCCGCCACUCGGUUUCUAUCUAAUCCAGUGUUUUUUUGAGU [#24 K4 Tryptophan A Exclusion]
Subject of test: K4 kissing-loop RNA reporter
apparent KD of K4 kissing-loop reporter (nM): 425
//
Residues: AAAUUCUUUUUUUUAUUUAACUUUUCAGAAGGAGCGUGGUAGUACACAGGUAGGUCGCUGAAUUUUGGACUAGUGAUGUUAGUUA [JR_SSArginiA_Sub007]
Subject of test: K4 kissing-loop RNA reporter
apparent KD of K4 kissing-loop reporter (nM): 156
//
Residues: AGUACGGCAAACUUGCAACAAGCCGUACCACGAGGACCGGUACGGCCGCCACUCGAUAACUUGCAGUGAUGUUGCAAGUAAGAAU [(T)''-(K)'-(T)'-(T1)-(T2)-(K1)-(K2)_Design5]
Subject of test: K4 kissing-loop RNA reporter
apparent KD of K4 kissing-loop reporter (nM): 161
//
Residues: UAAUCCUAGUGAUCCUUAUCAAGUGGUGGGCGAGGACCGGUACGGCCGCCACUCGAAUAUGCAGUGAUGUUGUAAUCCGGAUAAU [Exclusion - Tryptophan A (Freestyle 9)]
Subject of test: K4 kissing-loop RNA reporter
apparent KD of K4 kissing-loop reporter (nM): 568
